// provenance: PubChem BioAssay (NCATS)

- test_description: qHTS Screen of the MIPE 4.0 Collection Against Ewings Sarcoma (RDES) (AID 1259252); further: nearly all actives have a fitted effect of over 35% in size
- condition_label: RD-ES Ewing sarcoma viability, CellTiter-Glo, 48 h; series mostly up to 45.8 µM
Records with an inconclusive call do not appear. The source made the active and inactive calls. The call rests on the fitted dose curve; in most records, active means well fitted inhibition curve with a large enough effect; inconclusive means small, poorly fitted or top-dose-only effect; inactive means no such curve, though single readings can be large or run the other way.
Tick one outcome: 1 (yes) (active), 0 (no) (inactive)

# count of solved cases: 2
| entry_smiles | label |
| --- | --- |
| C#Cc1cccc(Nc2ncnc3cc(OC)c(OCCCCCCC(=O)NO)cc23)c1 | 1 (yes) |
| Cc1ccc2nc(NC(=O)CSc3nc4c(c(=O)n3-c3ccccc3)SCC4)sc2c1 | 1 (yes) |

Which outcome did this test record for the compound NC(=O)Nc1cc(-c2cccc(F)c2)sc1C(=O)N[C@H]1CCCNC1 ?
1 (yes)

Which outcome did this test record for the compound COc1ccc2c(c1)CC[C@@H](CN(C)CC(=O)O)[C@H]2c1ccccc1 ?
1 (yes)

Which outcome did this test record for the compound CNC(=O)c1ccc(N2C(=S)N(c3cnc(C#N)c(C(F)(F)F)c3)C(=O)C23CCC3)cc1F ?
1 (yes)

Which outcome did this test record for the compound Cc1cn(-c2cc(NC(=O)c3ccc(C)c(Nc4nccc(-c5cccnc5)n4)c3)cc(C(F)(F)F)c2)cn1 ?
0 (no)

Which outcome did this test record for the compound CCS(=O)(=O)c1cccc(-c2cc(C(=O)NC3CCN(C)CC3)c(C)c3[nH]c4ncc(C)cc4c23)c1 ?
1 (yes)

Which outcome did this test record for the compound CCN1CCN(CC(=O)Nc2ccc(-c3cccc4c(=O)cc(N5CCOCC5)oc34)c3sc4ccccc4c23)CC1 ?
1 (yes)

Which outcome did this test record for the compound Cc1[nH]nc2ccc(-c3cncc(OC[C@@H](N)Cc4ccccc4)c3)cc12 ?
1 (yes)

Which outcome did this test record for the compound Cc1c(C)n(Cc2ccc(-c3ccccc3C(=O)O)cc2)c2ccc(C(=O)N[C@@H](C)c3ccc([N+](=O)[O-])cc3)cc12 ?
0 (no)

Which outcome did this test record for the compound C1=CCOCc2cc(ccc2OCCN2CCCC2)Nc2nccc(n2)-c2cccc(c2)OCC1 ?
1 (yes)

---

- test_description: qHTS of pediatric cancer cell lines to identify multiple opportunities for drug repurposing: Primary screen for SK-N-MC cells (AID 1347093)
- condition_label: SK-N-MC viability, CellTiter-Glo luminescence, 48 h; series mostly up to 46 µM
Inconclusive results are not listed. Activity calls are given as the source filed them. Calls come from the whole dose curve; as a rule, active = well fitted cell-killing curve with a large enough effect; inconclusive = small, poorly fitted or top-dose-only effect; inactive = no such curve, though single readings can be large or run the other way.
Tick one outcome: active, inactive

# count of solved cases: 2
| entry_smiles | label |
| --- | --- |
| CC1(C)O[C@@H]2C[C@@H]3[C@H]4C[C@@H](F)C5=CC(=O)C=C[C@]5(C)[C@@]4(F)[C@@H](O)C[C@]3(C)[C@]2(C(=O)CO)O1 | active |
| CCCNC(=O)Nc1ccc(Oc2ncnc3cc(OC)c(OC)cc23)cc1Cl | inactive |

Pending compound:
Which outcome did this test record for the compound Cc1cc(Nc2nc(N[C@@H](C)c3ccc(F)cc3)c(C#N)cc2F)n[nH]1 ?
active

---

- test_description: Quantitative High-Throughput drug screen in 47 multiple myeloma cell lines against the NCATS MIPE library collection: AMO1_DSMZ cell viability assay (AID 1918927; further: nearly all actives have a fitted effect of over 30% in size; further: potency means the concentration at half of the fitted maximal effect)
- condition_label: AMO1 myeloma cells viability, CellTiter-Glo ATP luminescence, 48 h; series mostly up to 45.8 µM
Records with an inconclusive call do not appear. Activity calls are given as the source filed them. Calls come from the whole dose curve; as a rule, active = well fitted cell-killing curve with a large enough effect; inconclusive = small, poorly fitted or top-dose-only effect, or effect the other way; inactive = no such curve, though single readings can be large or run the other way.
measurement_type: Potency

Here is how some compounds turned out for Potency.
| compound | Potency |
| --- | --- |
| COc1cccc2nc(-c3cccs3)nc(NN3C(=O)C=C(C)C3=O)c12 | 93.5 nM (active) |
| CN(C1CCc2c(c3ccccc3n2CC(=O)O)C1)S(=O)(=O)c1ccc(F)cc1 (stereo not given) | 2640 nM (active) |
| CC(C)c1noc(N2CCC(COc3ccc(-c4ccc(S(C)(=O)=O)cc4)nc3)CC2)n1 | inactive |
| Cc1ccc(C(=O)Nc2cccc(C(F)(F)F)c2)cc1-c1ccc2nc(NCCN3CCOCC3)ncc2c1 | 3720 nM (active) |

From here, focus on the item given below.
Would you kindly share the measured Potency for COC(=O)Nc1ccc(-c2nc(N3CCOCC3)c3cnn(C4CCN(Cc5cccnc5)CC4)c3n2)cc1 ?
inactive

---

- test_description: Cell Proliferation Assay against the HBL1 Cell Line (AID 651646);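 further: cells exposed to compound for 48 h before reading; 100% = DMSO and 0% = 9.2 µM bortezomib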
- condition_label: HBL1 DLBCL cells; at 46.1 µM (top of the series)
Just a reminder that ties go to 0 (no): only viability, percent of control strictly below 10% counts as 1 (yes).

Hello, I'm reviewing records and need to know if viability, percent of control of COC(=O)c1ccc2c(C(=Nc3ccc(N(C)C(=O)CN4CCN(C)CC4)cc3)c3ccccc3)c(O)[nH]c2c1 is below 10%. Could you check?
1 (yes)

---

- test_description: qHTS of pediatric cancer cell lines to identify multiple opportunities for drug repurposing: Primary screen for OHS-50 cells (AID 1347103); further: potency means the concentration at half of the fitted maximal effect; nearly all actives have a fitted effect of over 40% in size
- condition_label: OHS-50 osteosarcoma viability, CellTiter-Glo luminescence, 48 h; series mostly up to 57.3 µM
Results filed as inconclusive are left out. Activity calls are given as the source filed them. Calls come from the whole dose curve; as a rule, active = well fitted cell-killing curve with a large enough effect; inconclusive = small, poorly fitted or top-dose-only effect; inactive = no such curve, though single readings can be large or run the other way.
measurement_type: Potency

Here is how some compounds turned out for Potency.
| compound | reported_measurement |
| --- | --- |
| C[C@@]12O[C@@H](C[C@]1(O)CO)n1c3ccccc3c3c4c(c5c6ccccc6n2c5c31)CNC4=O | 217 nM (active) |
| CN1CCN(c2ccc3nc(-c4c(N)c5c(F)cccc5[nH]c4=O)[nH]c3c2)CC1 | 1720 nM (active) |
| COc1cc2ncn(-c3cc(OCc4ccccc4C(F)(F)F)c(C(N)=O)s3)c2cc1OC | 1220 nM (active) |
| CC(=O)Nc1nc(C)c(-c2ccc(Cl)c(S(=O)(=O)NCCO)c2)s1 | 544 nM (active) |

Would you kindly share the measured Potency for COc1cc(Nc2ncc(F)c(Nc3ccc4c(n3)N(COP(=O)(O)O)C(=O)C(C)(C)O4)n2)cc(OC)c1OC ?
1220 nM (active)

Would you kindly share the measured Potency for COC(=O)C1=C(C)NC(C)=C(C(=O)OCCN2CCN(C(c3ccccc3)c3ccccc3)CC2)C1c1cccc([N+](=O)[O-])c1 (stereo unspecified) ?
15500 nM (active)

---

- test_description: qHTS of pediatric cancer cell lines to identify multiple opportunities for drug repurposing: Confirmatory screen for SJ-GBM2 cells (AID 1347116);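 further: 48 hour compound exposure; nearly all actives have a fitted effect of over 60% in size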
- condition_label: SJ-GBM2 glioblastoma cells, viability; series mostly up to 45.9 µM
Records with an inconclusive call do not appear. The source made the active and inactive calls. Calls come from the whole dose curve; as a rule, active = well fitted cell-killing curve with a large enough effect; inconclusive = small, poorly fitted or top-dose-only effect, or effect the other way; inactive = no such curve, though single readings can be large or run the other way.
Tick one outcome: active, inactive

| entry_smiles | label |
| --- | --- |
| CC[C@H]1CN2CCc3cc(OC)c(OC)cc3[C@H]2C[C@@H]1C[C@@H]1NCCc2cc(OC)c(OC)cc21 | active |
| CN(C)Cc1c(C(=O)NCCOc2ccc(C(=O)NO)cc2)oc2ccccc12 | active |

Pending molecule:
Which outcome did this test record for the molecule C=CC(=O)N1CCC[C@@H](n2nc(-c3ccc(Oc4ccccc4)cc3)c3c(N)ncnc32)C1 ?
inactive

---

- test_description: Quantitative High-Throughput drug screen in 47 multiple myeloma cell lines against the NCATS MIPE library collection: MMM1_PLB cell viability assay (AID 1918976); further: potency means the concentration at half of the fitted maximal effect; nearly all actives have a fitted effect of over 35% in size
- condition_label: MMM1 myeloma cells viability, CellTiter-Glo, 48 h; series mostly up to 45.8 µM
Results filed as inconclusive are left out. Calls of active or inactive are those of the source. Calls come from the whole dose curve; as a rule, active = well fitted cell-killing curve with a large enough effect; inconclusive = small, poorly fitted or top-dose-only effect, or effect the other way; inactive = no such curve, though single readings can be large or run the other way.
Below, each entry is listed with its recorded Potency.

Would you kindly share the measured Potency for CC(C)c1ccc(Cn2ccc3c4c(N)nc(NC5CC5)nc4ccc32)cc1 ?
16.6 µM (active)

Would you kindly share the measured Potency for COc1cc2ncnc(Nc3ccc(F)c(Cl)c3)c2cc1NC(=O)C=CCN1CCCCC1 ?
18.7 µM (active)

---

- test_description: Quantitative High-Throughput drug screen in 47 multiple myeloma cell lines against the NCATS MIPE library collection: OPM2_DSMZ cell viability assay (AID 1919872); further: nearly all actives have a fitted effect of over 30% in size
- condition_label: OPM2 myeloma viability, CellTiter-Glo ATP luminescence, 48 h; series mostly up to 45.8 µM
Results filed as inconclusive are left out. Active and inactive are the calls of the source. Calls follow the shape of the dose curve; as a rule, active = well fitted cell-killing curve with a large enough effect; inconclusive = small, poorly fitted or top-dose-only effect, or effect the other way; inactive = no such curve, though single readings can be large or run the other way.
Tick one outcome: active, inactive

# count of solved cases: 5
| entry_smiles | label |
| --- | --- |
| NC1(Cc2ccc(Cl)cc2)CCN(c2ncnc3[nH]ccc23)CC1 | active |
| Cc1cc(Nc2cc(CN3CCOCC3)c3nc(C)c(Cc4ccc(Cl)cc4F)n3n2)n[nH]1 | inactive |
| CC(C)(O)CCc1ccc(OCc2cc(-c3cccc(OC(F)F)c3)c3ncccc3c2)cc1 | inactive |
| CCN(CC)CCCCNc1ncc2cc(-c3cc(OC)cc(OC)c3)c(NC(=O)NC(C)(C)C)nc2n1 | active |
| O=C(c1ccc(Nc2nccc(-c3cc4ccccc4s3)n2)cc1)N1CCC(N2CCCC2)CC1 | active |

Which outcome did this test record for the molecule NC(=O)c1c(OCc2c(F)cc(Br)cc2F)nsc1NC(=O)NCCCCN1CCCC1 ?
active

Which outcome did this test record for the molecule Cc1ccc(C(=O)Nc2cccc(C(F)(F)F)c2)cc1-c1ccc2nc(NCCN3CCOCC3)ncc2c1 ?
active

Which outcome did this test record for the molecule O=C(O)CO.[NH2-].[NH2-].[Pt+2] ?
inactive
